Target: human type 1 glycine transporter (GlyT1) (Homo sapiens)
Construct: T98G cells (glioma cells) expressing human type 1 glycine transporter (GlyT1) were used
Sequence (P48067 1-706): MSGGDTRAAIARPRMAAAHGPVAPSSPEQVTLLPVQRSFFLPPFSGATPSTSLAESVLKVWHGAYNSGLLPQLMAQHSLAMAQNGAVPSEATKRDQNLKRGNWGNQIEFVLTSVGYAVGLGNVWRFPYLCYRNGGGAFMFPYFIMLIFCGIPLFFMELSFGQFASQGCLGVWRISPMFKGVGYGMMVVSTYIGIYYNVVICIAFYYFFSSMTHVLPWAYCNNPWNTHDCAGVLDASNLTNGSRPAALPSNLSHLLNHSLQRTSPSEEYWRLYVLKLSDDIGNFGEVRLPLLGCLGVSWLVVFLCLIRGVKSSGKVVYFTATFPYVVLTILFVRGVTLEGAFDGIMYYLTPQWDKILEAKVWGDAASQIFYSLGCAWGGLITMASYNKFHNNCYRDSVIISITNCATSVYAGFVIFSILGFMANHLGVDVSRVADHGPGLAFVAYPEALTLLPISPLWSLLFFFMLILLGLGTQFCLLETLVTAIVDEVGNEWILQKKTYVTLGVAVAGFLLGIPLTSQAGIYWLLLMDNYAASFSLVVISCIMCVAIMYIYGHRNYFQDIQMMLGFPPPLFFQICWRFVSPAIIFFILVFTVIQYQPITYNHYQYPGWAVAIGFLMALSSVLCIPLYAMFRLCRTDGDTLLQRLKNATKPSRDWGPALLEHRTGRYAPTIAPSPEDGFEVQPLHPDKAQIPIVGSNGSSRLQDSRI
Assay: Glycine uptake inhibition experiment ([3H]glycine uptake)
Assay type: cell-based
Settings: human GlyT1
pIC50: −log10 of the molar value.
value-kind: pIC50

compound | value-reported
CS(=O)(=O)c1cc(C(F)(F)F)ccc1C(=O)NC(c1ccccc1Cl)C1(O)CCC(F)(F)CC1 (single isomer, unassigned) [Compound 405] | 6.70
CS(=O)(=O)c1cc(C(F)(F)F)ccc1C(=O)NC(c1cccc(F)c1Cl)C1(O)CCC(F)(F)CC1 (single isomer, unassigned) [Compound 401] | 6.64
O=C(NC(c1ccccc1Cl)C1(O)CCC(F)(F)CC1)c1ccc(C(F)(F)F)nc1-n1nccn1 (single isomer, unassigned) [Compound 408] | 5.66

###

Target: human type 1 glycine transporter (GlyT1) (Homo sapiens, UniProt P48067)
Construct: T98G cells (glioma cells) expressing human type 1 glycine transporter (GlyT1) were used
Sequence (P48067 1-706): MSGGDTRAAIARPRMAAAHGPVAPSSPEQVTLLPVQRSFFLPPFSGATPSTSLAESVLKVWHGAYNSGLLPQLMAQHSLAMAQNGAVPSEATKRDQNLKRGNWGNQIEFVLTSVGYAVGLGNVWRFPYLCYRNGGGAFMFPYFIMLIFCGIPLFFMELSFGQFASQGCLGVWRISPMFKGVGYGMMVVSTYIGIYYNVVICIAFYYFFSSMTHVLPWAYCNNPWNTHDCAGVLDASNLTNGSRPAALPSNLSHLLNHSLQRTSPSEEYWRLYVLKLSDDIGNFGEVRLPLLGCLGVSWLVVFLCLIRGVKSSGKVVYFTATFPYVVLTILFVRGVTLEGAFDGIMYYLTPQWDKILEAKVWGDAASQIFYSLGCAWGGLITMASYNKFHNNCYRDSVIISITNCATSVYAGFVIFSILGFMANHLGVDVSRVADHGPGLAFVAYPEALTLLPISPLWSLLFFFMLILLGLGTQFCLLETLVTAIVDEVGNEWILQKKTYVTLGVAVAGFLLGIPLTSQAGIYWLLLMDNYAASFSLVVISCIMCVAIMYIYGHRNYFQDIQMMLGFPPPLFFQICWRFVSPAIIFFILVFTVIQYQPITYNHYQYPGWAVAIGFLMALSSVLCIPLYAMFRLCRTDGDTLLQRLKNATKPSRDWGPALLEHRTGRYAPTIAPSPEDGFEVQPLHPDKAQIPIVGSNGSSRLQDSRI
Assay: Glycine uptake inhibition experiment ([3H]glycine uptake)
Assay type: cell-based
Conditions: GlyT1
pIC50: −log10 of the molar value.
Class (required): determined from pIC50; valid ranges are one: < 6; two: ≥ 6 and < 7; three: ≥ 7

molecule | system-name | assigned-category
O=C(NC(c1cc(Cl)ccc1Cl)C1(O)CCC(F)(F)CC1)c1nccc(C(F)(F)F)c1Cl (centres unmarked) [Compound 148] | human type 1 glycine transporter (GlyT1) (Homo sapiens, UniProt P48067) | two
O=C(NC(c1ncccc1Cl)[C@]1(O)CC[C@@H](F)CC1)c1nccc(C(F)(F)F)c1Cl (single isomer, unassigned) [Compound 303] | human type 1 glycine transporter (GlyT1) (Homo sapiens, UniProt P48067) | one
CS(=O)(=O)c1ccc(Cl)c(C(=O)NC(c2cccc(F)c2Cl)[C@]2(O)CC[C@@H](F)CC2)c1 (single isomer, unassigned) [Compound 296] | human type 1 glycine transporter (GlyT1) (Homo sapiens, UniProt P48067) | one
CCn1cc(-c2cccc(C(NC(=O)c3cc(C(F)(F)F)ccc3C)C3(O)CCC(F)(F)CC3)c2)cn1 (centres unmarked) [Compound 179] | human type 1 glycine transporter (GlyT1) (Homo sapiens, UniProt P48067) | two
CCn1cc(-c2cccc([C@H](NC(=O)c3cccc(C(F)(F)F)c3Cl)C3(O)CCCC3)c2)cn1 [Compound 74] | human type 1 glycine transporter (GlyT1) (Homo sapiens, UniProt P48067) | three
CCn1cc(-c2cccc(C(NC(=O)c3cccc(Cl)c3Cl)C3(O)CCC(F)(F)CC3)c2)cn1 (centres unmarked) [Compound 119] | human type 1 glycine transporter (GlyT1) (Homo sapiens, UniProt P48067) | two
O=C(NC(c1cccnc1Cl)C1(O)CCC(F)(F)CC1)c1ccc(C(F)(F)F)nc1Cl (single isomer, unassigned) [Compound 344] | human type 1 glycine transporter (GlyT1) (Homo sapiens, UniProt P48067) | one
[2H]C1([2H])C([2H])([2H])C([2H])([2H])C(O)(C(NC(=O)c2nccc(C(F)(F)F)c2Cl)c2cccc(Cl)c2)C([2H])([2H])C1([2H])[2H] (single isomer, unassigned) [Compound 231] | human type 1 glycine transporter (GlyT1) (Homo sapiens, UniProt P48067) | three
CCn1cc(-c2cccc(C(NC(=O)c3c(Cl)ccc(C(F)(F)F)c3Cl)C3(O)CCC(F)(F)CC3)c2)cn1 (single isomer, unassigned) [Compound 221] | human type 1 glycine transporter (GlyT1) (Homo sapiens, UniProt P48067) | one
O=C(NC(c1cccc(F)c1)C1(O)CCCCC1)c1nccc(C(F)(F)F)c1Cl (centres unmarked) [Compound 63] | human type 1 glycine transporter (GlyT1) (Homo sapiens, UniProt P48067) | three
O=C(NC(c1cccc(F)c1Cl)[C@]1(O)CC[C@@H](F)CC1)c1ccc(Cl)cc1-n1nccn1 (single isomer, unassigned) [Compound 285] | human type 1 glycine transporter (GlyT1) (Homo sapiens, UniProt P48067) | one
O=C(NC(c1ncccc1Cl)C1(O)CCC(F)(F)CC1)c1nccc(C(F)(F)F)c1Cl (single isomer, unassigned) [Compound 318] | human type 1 glycine transporter (GlyT1) (Homo sapiens, UniProt P48067) | two
O=C(NC(c1ccc(F)c(Cl)c1)C1(O)CCCC1)c1nccc(C(F)(F)F)c1Cl (centres unmarked) [Compound 93] | human type 1 glycine transporter (GlyT1) (Homo sapiens, UniProt P48067) | two
O=C(NC(c1ccccc1F)[C@]1(O)CC[C@@H](F)CC1)c1nccc(C(F)(F)F)c1Cl (single isomer, unassigned) [Compound 239] | human type 1 glycine transporter (GlyT1) (Homo sapiens, UniProt P48067) | two
CCn1cc(-c2cccc(C(NC(=O)c3cccc(OC)c3Cl)C3(O)CCC(F)(F)CC3)c2)cn1 (centres unmarked) [Compound 207] | human type 1 glycine transporter (GlyT1) (Homo sapiens, UniProt P48067) | one

###

Target: human type 1 glycine transporter (GlyT1) (Homo sapiens)
Construct: T98G cells (glioma cells) expressing human type 1 glycine transporter (GlyT1) were used
Sequence (P48067 1-706): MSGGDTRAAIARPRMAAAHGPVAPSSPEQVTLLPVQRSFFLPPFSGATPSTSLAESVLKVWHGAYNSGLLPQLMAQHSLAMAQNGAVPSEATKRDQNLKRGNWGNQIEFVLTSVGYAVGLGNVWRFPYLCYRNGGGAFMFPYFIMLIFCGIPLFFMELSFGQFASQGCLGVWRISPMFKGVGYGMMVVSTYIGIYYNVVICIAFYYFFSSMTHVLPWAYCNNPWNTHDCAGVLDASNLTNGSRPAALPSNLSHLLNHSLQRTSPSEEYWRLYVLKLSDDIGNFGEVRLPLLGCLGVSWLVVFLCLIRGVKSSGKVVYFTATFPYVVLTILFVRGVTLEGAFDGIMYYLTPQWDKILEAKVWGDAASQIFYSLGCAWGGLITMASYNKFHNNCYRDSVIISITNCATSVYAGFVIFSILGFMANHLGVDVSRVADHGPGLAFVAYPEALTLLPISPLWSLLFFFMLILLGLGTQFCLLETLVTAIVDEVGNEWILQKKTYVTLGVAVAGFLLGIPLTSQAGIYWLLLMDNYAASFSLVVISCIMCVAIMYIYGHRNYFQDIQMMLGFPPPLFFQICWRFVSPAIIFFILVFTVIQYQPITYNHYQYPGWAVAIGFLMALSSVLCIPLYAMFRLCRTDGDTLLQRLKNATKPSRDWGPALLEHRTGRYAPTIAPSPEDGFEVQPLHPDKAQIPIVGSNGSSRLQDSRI
Experiment: Glycine uptake inhibition experiment ([3H]glycine uptake)
Type: cell-based
Details: GlyT1
value-kind: IC50 (nM)

compound | value-reported
O=C(N[C@@H](c1cccc(Cl)c1)[C@]1(O)CC[C@H](F)CC1)c1nccc(C(F)(F)F)c1Cl [Compound 187] | 210
O=C(NC(c1cccc(Cl)c1)C1(O)CCCC1)c1ccnc(C(F)(F)F)c1Cl (single isomer, unassigned) [Compound 185] | 140
O=C(NC(c1cccc(-c2ccccn2)c1)C1(O)CCC(F)(F)CC1)c1nccc(C(F)(F)F)c1Cl (stereo not shown) [Compound 143] | 210
O=C(NC(c1ccc(F)c(F)c1F)C1(O)CCC(F)(F)CC1)c1nccc(C(F)(F)F)c1Cl (stereo not shown) [Compound 170] | 630
O=C(NC(c1cccc(CO)c1)C1(O)CCCC1)c1nccc(C(F)(F)F)c1Cl (stereo not shown) [Compound 104] | 920
O=C(NC(c1cccc(Cl)n1)C1(O)CCC(F)(F)CC1)c1ccc(C(F)(F)F)nc1Cl (single isomer, unassigned) [Compound 356] | 250
O=C(N[C@@H](c1cccc(Br)c1)C1(O)CCCC1)c1nccc(C(F)(F)F)c1-n1cccn1 [Compound 69] | 1400
